Entries and their measured PET hydrolysis follow.
test method notes: PET hydrolysis, aromatic products released after 48 h (umol product/mg enzyme); higher = more PET depolymerization activity
experimental context: substrate: cryPow; 40 °C; pH 5.5

Field: example entries. Status: answers known.
>  <record sequence>
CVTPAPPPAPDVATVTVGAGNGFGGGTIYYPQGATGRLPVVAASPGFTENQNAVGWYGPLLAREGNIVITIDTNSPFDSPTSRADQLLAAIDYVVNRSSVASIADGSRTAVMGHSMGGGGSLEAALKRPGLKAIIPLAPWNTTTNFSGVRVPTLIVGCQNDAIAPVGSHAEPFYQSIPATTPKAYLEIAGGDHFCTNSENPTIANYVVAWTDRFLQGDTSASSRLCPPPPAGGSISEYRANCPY [ESM050]

>  <PET hydrolysis>
50.5

$$$$
>  <record sequence>
GRVMAASDSGTAADERVYAEPSVDPASVGSAGRNPYERGPEPTLASVAAEYGPFDTDQLTVPPGHGFNGGYIYYPTDTSQTFGAVAIVPGYTALFADEEAWMGPRLASFGFVVIGIETNSRDDWDIARGEQLLAALDYLVHHSPVRARIDANRLAVVGHSMGGGGALFAATQRPSLKAVVALAPYFPSGSLAAIRVPTMIIGGQDDTVVTPSYLDDLYASRPAHTPGAYLMLADADHLFATRPNTVEMRLLIPWLKIFVDHDTRYTQFLCPVADRSGIARHHVT [TEP126]

>  <PET hydrolysis>
< 3

$$$$
>  <record sequence>
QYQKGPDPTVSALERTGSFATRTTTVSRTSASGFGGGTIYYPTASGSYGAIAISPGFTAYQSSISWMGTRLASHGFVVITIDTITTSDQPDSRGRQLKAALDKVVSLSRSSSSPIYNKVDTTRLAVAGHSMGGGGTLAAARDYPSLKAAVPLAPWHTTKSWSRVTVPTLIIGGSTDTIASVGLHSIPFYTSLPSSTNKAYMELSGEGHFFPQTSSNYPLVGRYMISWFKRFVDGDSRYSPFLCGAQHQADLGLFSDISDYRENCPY [ESM169]

>  <PET hydrolysis>
15

$$$$
>  <record sequence>
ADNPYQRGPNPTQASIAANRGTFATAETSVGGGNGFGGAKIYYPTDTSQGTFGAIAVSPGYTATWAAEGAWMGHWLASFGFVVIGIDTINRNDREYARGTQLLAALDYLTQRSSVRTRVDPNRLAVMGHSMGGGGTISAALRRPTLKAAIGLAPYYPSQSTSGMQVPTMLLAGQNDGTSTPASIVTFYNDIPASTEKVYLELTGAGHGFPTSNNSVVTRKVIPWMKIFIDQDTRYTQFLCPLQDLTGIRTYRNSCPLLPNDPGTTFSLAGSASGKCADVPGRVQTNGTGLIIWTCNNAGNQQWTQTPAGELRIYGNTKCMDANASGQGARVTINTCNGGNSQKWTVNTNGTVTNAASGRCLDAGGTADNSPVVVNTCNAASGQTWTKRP [DP047]

>  <PET hydrolysis>
< 3

$$$$

*Q* For the sequence shown here, DDGYQRGPDPTEESIEAPRGTFEIGMAVVTRASADGFGGGTVYYPTDTSEGTFGAVAVSPGYSSSQAAIAWLGPRLASQGFVVFTIDTLSTSDSPTRRGDQVLAALSFLGRTELADRIDPDRLAVMGHSMGGGGSLEAAKDYPALQAIVPMTPWSVDKTFPEVTAPTLVIGAEDDVVARPRSHAEPIYESLPADGDKAYLELRDASHSAPSAPNTLIARYSLSWLKRYVDDDERYQQFLCPPPAVDDEISEYRSTCA [DP089] , give the reported PET hydrolysis.
*A* < 3

*Q* Okay, and AENPHQRGPNPTVAALEAAAGPFAVAKVSVPGGHGFGGGTITYPTDTSQGTFGAVAVSPGFIESEGAIAWFGPRLASHGFVVITISTNGLFDQPDARGAQLLAALDYVTKSSAVRDRVDPARLAVMGHSMGGGGALYATAQRPALKASIPLLAWSNTKSWGSVRVPTMVIGAENDFIASVGSHSEPFYQSLGGEKAYLEMNDADHFVTNSPTPTVGKLTVSWLKRFMDNDTRYDQFLCPAPPVGGPISEYRDTCPYI [DP017] ?
*A* 4

*Q* Repeat with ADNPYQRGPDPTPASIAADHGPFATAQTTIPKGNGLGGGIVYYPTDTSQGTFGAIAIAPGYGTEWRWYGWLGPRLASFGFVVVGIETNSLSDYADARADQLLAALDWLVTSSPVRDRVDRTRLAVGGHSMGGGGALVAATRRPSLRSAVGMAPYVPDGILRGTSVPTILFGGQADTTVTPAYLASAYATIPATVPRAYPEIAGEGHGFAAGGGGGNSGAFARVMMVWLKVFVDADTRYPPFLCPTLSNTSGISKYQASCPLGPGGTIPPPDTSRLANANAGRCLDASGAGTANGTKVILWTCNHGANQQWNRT [ESM139]
*A* < 3

*Q* Again, but for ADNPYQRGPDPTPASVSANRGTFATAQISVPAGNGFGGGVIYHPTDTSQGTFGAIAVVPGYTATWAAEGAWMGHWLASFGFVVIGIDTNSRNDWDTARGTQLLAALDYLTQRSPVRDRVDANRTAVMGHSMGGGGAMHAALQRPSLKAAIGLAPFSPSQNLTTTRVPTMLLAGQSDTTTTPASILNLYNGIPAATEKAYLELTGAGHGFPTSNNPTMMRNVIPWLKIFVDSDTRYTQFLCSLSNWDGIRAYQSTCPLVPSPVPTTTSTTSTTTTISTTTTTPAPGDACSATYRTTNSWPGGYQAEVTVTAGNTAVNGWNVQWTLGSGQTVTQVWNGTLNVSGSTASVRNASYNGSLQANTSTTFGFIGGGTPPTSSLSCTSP [ESM035]
*A* < 3

*Q* Another sequence to check: TAGAEPSGGAPAAGGSGCGDVADPAAQGPLHVQTYSSGLRDGPDYGSQTMHYPTDGAPPYPALVIVPGFMSLESSIADHGPHFASHGIVTLTIGTNSTMDQPPARSEALLDALETIRAEHTRAGGPLEGKLDLSRLGVMGWSMGGGGTLITVDDHPELKAAITLCAWNPGQTYRNNQVPTLLFAGTADTLAGG [TEP195]
*A* < 3

*Q* Now this one: GESPGAAVVAFAGHAKGPAPTEQSVRAQQGPFTTDKLVVPAQAGRGFNKGTIYYPDDTSQGTFGAVAVIPGFLEGESAISWLGPTLASHGFITLTLAPNATTDYPEPRSNQLLAAVDWLANQSPVKDRVDPNRLAVAGHSMGGGGTLIAASKNPALKAAVPLTPWNPHSNFSDVTVPTLIIGADRDFIAPTFMHASPMYNSLKAKQDQAYLKLKNADHFATNRYNATATAYTVSWLKRYVDEDTRYSQFLCPVKSGFQLTCPI [DP011]
*A* < 3
